Kindly state PBM E-score for each of the entries shown.
- assayed-target: Stp1 (UniProt B3LFK1)
- Sequence: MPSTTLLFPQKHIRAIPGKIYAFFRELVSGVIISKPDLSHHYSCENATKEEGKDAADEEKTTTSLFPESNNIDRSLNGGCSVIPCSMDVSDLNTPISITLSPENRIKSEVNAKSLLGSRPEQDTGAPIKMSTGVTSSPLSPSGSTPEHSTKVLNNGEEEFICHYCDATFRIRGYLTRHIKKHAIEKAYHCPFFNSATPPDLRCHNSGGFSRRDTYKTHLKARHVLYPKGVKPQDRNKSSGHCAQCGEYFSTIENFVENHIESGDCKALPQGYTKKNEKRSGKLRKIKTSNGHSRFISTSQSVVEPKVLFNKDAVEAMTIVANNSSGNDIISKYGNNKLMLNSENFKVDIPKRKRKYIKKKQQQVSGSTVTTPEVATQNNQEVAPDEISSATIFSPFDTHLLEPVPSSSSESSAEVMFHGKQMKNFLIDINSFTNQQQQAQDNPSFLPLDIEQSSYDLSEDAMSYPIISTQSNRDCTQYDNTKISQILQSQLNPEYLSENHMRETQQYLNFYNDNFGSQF
- protocol-summary: PBM E-score (8-mer binding enrichment) (E-score (-0.5 to 0.5)); higher = stronger / more preferred TF binding
- condition-info: protein concentration: 200 nM; construct: GST-full length
Over roughly 33,000 sequences, “E-score (-0.5 to 0.5)” has its median near -0.016; the highest 2% begin near 0.32. The sample holds the highest values, similar sequences and a random draw of the others, so the mix is not that of the screen.
Answers are plain numbers.

Recorded PBM E-score, per entry:
>>> df
   construct_sequence  measured_attribute  numeric_value
0            GTAGCTGA         PBM E-score         -0.154
1            AAGCTACT         PBM E-score        -0.0664
2            AAGGCACG         PBM E-score          0.397
3            AGAATCTC         PBM E-score        -0.0977
4            ACAGGGCT         PBM E-score        -0.0531
5            CATATATA         PBM E-score          0.256
6            AGAGGGCG         PBM E-score          0.307
7            ATGCACTC         PBM E-score        -0.0521

For each of the items listed, what is its PBM E-score?
1. CGGCACCC
2. CAGGCACC
3. CAGGCACA
4. AAGGCACA

Result:
0.338
-0.107
-0.259
0.338

For each of the items listed, what is its PBM E-score?
1. AGGCACCC
2. AGTATATG
3. AGTATATA
4. ATGCAGGA

Result:
1. -0.00944
2. -0.0746
3. 0.363
4. -0.258

For each of the items listed, what is its PBM E-score?
1. CTTGGCAA
2. ATAGAAAT
3. GATATATA
4. TATAGAGA
5. ACCTTTCG
6. AGGGCACT
7. GACCTTTA

Result:
1: -0.119; 2: 0.197; 3: 0.314; 4: 0.0248; 5: -0.121; 6: 0.239; 7: -0.0597

For each of the items listed, what is its PBM E-score?
1. CATTATGG
2. GATCCATA
3. AAGGCATC
4. AAGGCAGA
5. GAGGCAGA

Result:
1: -0.177; 2: 0.134; 3: 0.292; 4: -0.164; 5: -0.118

For each of the items listed, what is its PBM E-score?
1. CAGACCCC
2. CAGGGGCA
3. GGTATCCA
4. AGGGCCGC

Result:
1: -0.381; 2: -0.0911; 3: 0.0649; 4: 0.168

For each of the items listed, what is its PBM E-score?
1. AAGGCATG
2. CGGCACCG
3. AGTATATC
4. AAGGCAAA
5. AAGGCACC
6. CCGCACCG

Result:
[0.158, 0.437, 0.0639, 0.247, 0.402, 0.288]

For each of the items listed, what is its PBM E-score?
1. AGGCACCG
2. GAGGCACA
3. TATATATA

Result:
1: 0.272; 2: 0.332; 3: 0.345
